- target: human PDE5 (Homo sapiens)
- Construct: from tissue; host or cells: platelets from fresh blood of human donors (lysate, 10,000 g supernatant)
- measurementNotes: Inhibition of the type 5 phosphodiesterase (PDE5) activity, modified SPA test with platelet lysate
- Type: biochemical
- measurementSetup: PDE5 from human platelet lysate, 0.5 μM cGMP
readoutType: IC50 (pM)

I. CCOc1ccc2c(c1-c1ncnc3c(C(=O)NC4CCN(C(=O)CC)CC4)c[nH]c13)OCO2 [Example 133]
II. C[C@H](O)C(=O)N1CCC(NC(=O)c2c[nH]c3c(-c4cc(F)ccc4OCC4CC4)ncnc23)CC1 [Example 221]
III. O=C(NC1CN(C(=O)CO)C1)c1c[nH]c2c(-c3c(OCC4CC4)ccc4c3OCO4)ncnc12 [Example 195]
// smallest IC50 at index 0, largest at the end // ordering of labels required in reply
I, III, II
(I: 631 pM, III: 1320 pM, II: 6460 pM)

a. C[C@H](O)C(=O)N1CCOC(CNC(=O)c2c[nH]c3c(-c4c(OCC5CC5)ccc5c4OCO5)ncnc23)C1 (stereo partly shown) [Example 194]
b. COc1cc(OCC2CC2)c(-c2ncnc3c(C(=O)N[C@@H]4CCCN(C(=O)[C@H](C)O)C4)c[nH]c23)cc1F [Example 240]
c. CCOc1ccc2c(c1-c1ncnc3c(C(=O)N[C@@H]4CCN(C(=O)[C@H](C)O)C4)c[nH]c13)OCO2 [Example 250]
Ordering criterion: IC50; begin with the maximum. // ordering of labels required in reply
c, a, b

Entry source: patent US8445501B2
